# IC50 or % Inhibition Factor Xa (30 µM) annotations
target: Human factor Xa (Homo sapiens, UniProt P00742); construct: leads from XII to XIIa to XIa to IXa and to the conversion of X to Xa; purchased Enzyme Research Laboratories, South Bend IN; experiment: Xa Assay; type: biochemical; conditions: % inhibition at 30 µM (cells with % or %@30, bare 0)
Sequence (P00742 235-488 limits assumed): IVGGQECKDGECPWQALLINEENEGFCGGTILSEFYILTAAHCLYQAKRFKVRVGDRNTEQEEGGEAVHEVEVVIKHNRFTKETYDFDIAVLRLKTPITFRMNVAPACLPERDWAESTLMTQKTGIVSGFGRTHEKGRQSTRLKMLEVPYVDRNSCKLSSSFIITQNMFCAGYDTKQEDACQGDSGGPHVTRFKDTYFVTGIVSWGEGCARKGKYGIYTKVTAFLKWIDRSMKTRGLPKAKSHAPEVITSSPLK
Sequence (P00742 41-179 limits assumed): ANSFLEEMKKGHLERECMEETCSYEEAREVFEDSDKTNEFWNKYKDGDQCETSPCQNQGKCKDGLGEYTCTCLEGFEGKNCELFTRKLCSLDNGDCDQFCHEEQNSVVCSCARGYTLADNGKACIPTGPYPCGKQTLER

| molecule | readout-unit | IC50 or % Inhibition Factor Xa (30 µM) |
| --- | --- | --- |
| N=C(N)c1ccc(CNC(=O)Cn2c(-c3ccccc3)c(Cl)nc(NCCC3=CCCCC3)c2=O)cc1 [1507-17] | % | 16 |
| N=C(N)c1ccc(CNC(=O)Cn2c(-c3ccccc3)c(Cl)nc(NCc3cc(F)cc(F)c3)c2=O)cc1 [1512-39] | % | 4 |
| N=C(N)c1ccc(CNC(=O)Cn2c(-c3ccccc3)c(Cl)nc(NCCN3CCOCC3)c2=O)cc1 [1471-12] | % | 9 |
| C[C@H](C(=O)NCc1ccc(C(=N)N)cc1)n1c(-c2ccccc2)c(Cl)nc(NCCc2cccc(Cl)c2)c1=O [1517-23] | % | 0 |
| Cc1cc(Cl)cc(Cl)c1CNc1nc(Cl)c(-c2ccccc2)n(CC(=O)NCc2ccc(C(=N)N)cc2)c1=O [1512-45] | % | 11 |
| N=C(N)c1ccc(CNC(=O)C(Cc2ccccc2)n2c(-c3ccccc3)c(Cl)nc(NC3CCC3)c2=O)cc1 (stereo not drawn) [1517-08] | % | 0 |
| CC(C)Nc1nc(Cl)c(-c2cccc(N)c2)n(CC(=O)NCc2ccc(C(=N)N)c(F)c2)c1=O [Example 42] | % | 0 |
| N=C(N)c1ccc(CNC(=O)Cn2c(-c3ccccc3)c(Cl)nc(NCC(F)(F)F)c2=O)cc1 [1507-41] | % | 17 |

----------
# IC50 or % Inhibition Factor Xa (30 µM) annotations
molecular target: Human factor Xa (Homo sapiens, UniProt P00742); construct: leads from XII to XIIa to XIa to IXa and to the conversion of X to Xa; purchased Enzyme Research Laboratories, South Bend IN; assay: Xa Assay; assay type: biochemical; details: % inhibition at 30 µM (cells with % or %@30, bare 0)

| compound | readout-unit | IC50 or % Inhibition Factor Xa (30 µM) |
| --- | --- | --- |
| N=C(N)c1ccc(CNC(=O)Cn2c(-c3ccccc3)c(Cl)nc(NCc3cc(Cl)ccc3Cl)c2=O)cc1 [1512-35] | % | 4 |
| C[C@H](C(=O)NCc1ccc(C(=N)N)cc1)n1c(-c2ccccc2)c(Cl)nc(NCCc2ccccc2)c1=O [1517-17] | % | 0 |
| N=C(N)c1ccc(CNC(=O)Cn2c(-c3ccccc3)c(Cl)nc(NCCc3cccnc3)c2=O)cc1 [1471-16] | % | 23 |
| COc1ccc(CCNc2nc(Cl)c(-c3ccccc3)n(CC(=O)NCc3ccc(C(=N)N)cc3)c2=O)cc1OC [1512-05] | % | 10 |
| N=C(N)c1ccc(CNC(=O)Cn2c(-c3ccc4c(c3)OCO4)c(Cl)nc(NCCc3ccccc3)c2=O)cc1 [1471-47] | % | 22 |
